- TARGET: recombinant AtCKX2 (Arabidopsis thaliana)
- Sequence (Q9FUJ3 23-501): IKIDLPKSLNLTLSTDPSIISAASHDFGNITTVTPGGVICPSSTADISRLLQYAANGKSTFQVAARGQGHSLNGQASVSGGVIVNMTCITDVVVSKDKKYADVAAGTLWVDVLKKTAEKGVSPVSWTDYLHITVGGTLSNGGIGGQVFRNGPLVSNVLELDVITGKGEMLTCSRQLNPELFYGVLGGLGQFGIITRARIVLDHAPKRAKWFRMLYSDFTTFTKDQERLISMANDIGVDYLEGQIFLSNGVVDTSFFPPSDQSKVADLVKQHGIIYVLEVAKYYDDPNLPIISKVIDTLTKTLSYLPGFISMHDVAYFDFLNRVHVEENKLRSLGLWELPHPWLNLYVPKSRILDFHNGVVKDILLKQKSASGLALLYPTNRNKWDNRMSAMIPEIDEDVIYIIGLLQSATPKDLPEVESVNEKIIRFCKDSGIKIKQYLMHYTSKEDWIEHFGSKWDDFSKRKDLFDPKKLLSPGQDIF
- METHOD: Inhibition of cytokinin oxidase/dehydrogenase activity (PMS/MTT microtitre plate assay)
- Format: biochemical
- ASSAY CONDITIONS: 30 μM iP as substrate, pH 7.4, 37° C.; means of three replicates; read-out: IC50, inhibition of recombinant AtCKX2
VALUE KIND: pIC50
One number for each entry, as −log10 of the molar value.

MOLECULE: COc1cccc(Nc2nc(F)nc3nc[nH]c23)c1 [Compound 51, 2-Fluoro-6-(3-methoxyanilino)purine]
pIC50: 6.40

Below are some molecules; for each one, tell me its pIC50.
1. Fc1nc(Nc2ccc(Cl)cc2)c2nc[nH]c2n1 [Compound 43]
2. Fc1cccc(Nc2nc(Cl)nc3nc[nH]c23)c1 [Compound 6, 2-Chloro-6-(3-fluoroanilino)purine]
3. Clc1cccc(Nc2nc(Cl)nc3nc[nH]c23)c1 [Compound 3, 2-Chloro-6-(3-chloroanilino)purine]
4. Cc1nc(Nc2cccc(F)c2)c2nc[nH]c2n1 [Compound 113]

[4.57, 4.91, 5.20, 4.66]

Below are some molecules; for each one, tell me its pIC50.
1. Oc1cccc(Nc2nc(F)nc3[nH]cnc23)c1 [Compound 48]
2. Fc1nc(Nc2cccc(Cl)c2)c2nc[nH]c2n1 [Compound 42]

4.93
4.82

These entries and their values trace back to patent US8222260B2.
